target: Dihydrofolate reductase (Pneumocystis jirovecii); assay: Inhibition of Pneumocystis jirovecii recombinant DHFR expressed in Escherichia coli Rosetta Gami B (DE3) competent cells using DHFA as substrate and NADPH
Sequence (Q9UUP5 whole entry): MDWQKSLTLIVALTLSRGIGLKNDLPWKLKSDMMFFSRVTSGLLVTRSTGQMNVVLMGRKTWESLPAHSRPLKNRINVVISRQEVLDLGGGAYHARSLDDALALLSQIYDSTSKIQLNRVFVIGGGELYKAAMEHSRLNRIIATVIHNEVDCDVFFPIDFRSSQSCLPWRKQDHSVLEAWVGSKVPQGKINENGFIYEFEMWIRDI
Consider the following molecules; for each one, report its IC50.
Answers are plain numbers, in µM.

smiles=Cc1c(Sc2ccc3ccccc3c2)[nH]c2nc(N)nc(N)c12 assay_endpoint=IC50 reading=0.101
smiles=COc1cccc(Sc2c(C)c3c(N)nc(N)nc3n2C(C)C)c1 assay_endpoint=IC50 reading=0.074
smiles=Cc1c(Sc2ccc(F)c(F)c2)n(C)c2nc(N)nc(N)c12 assay_endpoint=IC50 reading=0.247
smiles=CCCCn1c(Sc2cccc(OC)c2)c(C)c2c(N)nc(N)nc21 assay_endpoint=IC50 reading=0.073
smiles=Cc1c(Sc2cccc3ccccc23)n(C)c2nc(N)nc(N)c12 assay_endpoint=IC50 reading=0.177
smiles=CCn1c(Sc2cccc(OC)c2)c(C)c2c(N)nc(N)nc21 assay_endpoint=IC50 reading=0.035
smiles=COc1ccc(Sc2[nH]c3nc(N)nc(N)c3c2C)cc1 assay_endpoint=IC50 reading=0.252
smiles=Cc1c(Sc2ccc(OC(F)(F)F)cc2)[nH]c2nc(N)nc(N)c12 assay_endpoint=IC50 reading=0.081
smiles=Cc1c(Sc2ccc(F)c(F)c2)[nH]c2nc(N)nc(N)c12 assay_endpoint=IC50 reading=0.24
smiles=CCCn1c(Sc2cccc(OC)c2)c(C)c2c(N)nc(N)nc21 assay_endpoint=IC50 reading=0.084

# input for lookup
Query string: I am curious: what IC50 value has been reported for COc1ccc(Sc2c(C)c3c(N)nc(N)nc3n2C)cc1 ?
Result string: 0.219
